- Measured target: HLA-A*0202 (Homo sapiens, UniProt P04439, D140Y/D185E/D98H/E176V/E277Q/G131W/G231S/I119L/I121R/I166T/I218V/L180W/L300P/L318F/N151K/N90K/P208A/P217A/Q67R/Q86G/Q94H/R138H/R169H/T345S)
- Protocol text: HLA class I binding assay, purified HLA-A*0202
- Run conditions: Table XXII, binding affinity
pIC50: −log10 of the molar value.
Observable: pIC50

Sample CC[C@H](C)[C@H](N)C(=O)N[C@@H](CC(C)C)C(=O)N[C@H](C(=O)NCC(=O)N[C@H](C(=O)N[C@@H](CC(C)C)C(=O)N[C@H](C(=O)NCC(=O)N[C@H](C(=O)O)C(C)C)C(C)C)C(C)C)[C@@H](C)CC ; pIC50 observed: 8.10

A: CC[C@H](C)[C@H](NC(=O)CNC(=O)[C@@H](NC(=O)[C@H](CC(C)C)NC(=O)[C@H](C)N)C(C)C)C(=O)N[C@@H](CCSC)C(=O)N[C@H](C(=O)NCC(=O)N[C@H](C(=O)O)C(C)C)[C@@H](C)CC
B: CC[C@H](C)[C@H](NC(=O)[C@H](CC(C)C)NC(=O)[C@@H](N)CCC(N)=O)C(=O)NCC(=O)N[C@@H](Cc1ccc(O)cc1)C(=O)N[C@H](C(=O)N[C@H](C(=O)NCC(=O)N[C@H](C(=O)O)C(C)C)[C@@H](C)CC)C(C)C
C: CC[C@H](C)[C@H](NC(=O)CNC(=O)[C@H](CS)NC(=O)[C@H](CC(C)C)NC(=O)[C@@H](N)Cc1ccc(O)cc1)C(=O)N[C@@H](CCC(N)=O)C(=O)N[C@@H](CC(N)=O)C(=O)N[C@@H](CO)C(=O)N[C@H](C(=O)O)C(C)C
D: CC[C@H](C)[C@H](NC(=O)CN)C(=O)N[C@@H](CCSC)C(=O)N[C@H](C(=O)NCC(=O)N[C@H](C(=O)N[C@@H](CC(C)C)C(=O)N[C@H](C(=O)NCC(=O)N[C@H](C(=O)O)C(C)C)C(C)C)C(C)C)[C@@H](C)CC
Descending sort on pIC50 required. Output the labels ranked as instructed.
B, C, A, D

---

- Measured target: HLA-A*3101 (Homo sapiens, UniProt P04439, A270S/D185E/E176V/E277Q/F33T/G231S/G80R/H175R/I121M/I218V/I322F/K168Q/L300P/L318F/M331R/P217A/Q94H/R138Q/T323A/T345S/T97I/V358M)
- Protocol text: HLA class I binding assay, purified HLA-A*3101
- Run conditions: Table XXIII, binding affinity
pIC50: −log10 of the molar value. Where no end group is shown, it is not given here.
Observable: pIC50

Entry TVSPLNTSYK [CEA.241.V2K10] — recorded pIC50 = < 5.00

---

- Measured target: HLA-A*6801 (Homo sapiens, UniProt P04439, A269V/D185E/E176V/E277Q/E87N/F33Y/G231S/I121M/I166T/I218V/L180W/L300P/L318F/N151K/P208A/P217A/Q86R/R169H/T345S)
- Protocol text: HLA class I binding assay, purified HLA-A*6801
- Run conditions: Table XXIII, binding affinity
Where no end group is shown, it is not given here.
Observable: IC50 (nM)
Quick note: give the figure in nM, leave out the unit.

Recorded result, TVSPLNTSYK [CEA.241.V2K10] , IC50: 7.3
